The entries below come with measured Percent CD33 Surface Expression, Macrophage % CD33 values attached.
- SYSTEM_TESTED: human CD33 (human, UniProt P20138 18-364)
- Sequence (P20138 18-364): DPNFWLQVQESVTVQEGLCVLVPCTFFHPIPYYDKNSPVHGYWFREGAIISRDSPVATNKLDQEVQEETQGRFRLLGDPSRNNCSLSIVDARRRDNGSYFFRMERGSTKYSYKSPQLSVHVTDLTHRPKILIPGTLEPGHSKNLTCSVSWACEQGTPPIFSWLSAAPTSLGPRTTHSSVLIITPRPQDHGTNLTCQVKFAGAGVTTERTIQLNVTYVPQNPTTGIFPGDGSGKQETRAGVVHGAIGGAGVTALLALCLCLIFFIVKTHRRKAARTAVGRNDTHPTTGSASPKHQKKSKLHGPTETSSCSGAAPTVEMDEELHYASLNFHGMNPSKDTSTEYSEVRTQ
- ASSAY_INFO: cell-based or functional assay
MEASUREMENT_TYPE: Percent CD33 Surface Expression, Macrophage % CD33 (%)

BINDER: C-16 (antibody, V domains shown, human IgG1) VH: EVQLVESGGGLVQPGGSLRLSCAASGFTFSSYWMSWVRQAPGKGLEWVANINQDGSEKYYVDSVKGRFTISRDNAKNSLYLQMNSLRAEDTAVYYCAREGSDRHPFDYWGQGTLVTVSS VL: DIQMTQSPSSLSASVGDRVTITCRASQSISSYLNWYQQKPGKAPKLLIYAASSLQSGVPSRFSGSGSGTDFTLTISSLQPEDFATYYCQQAYLVPLTFGGGTKVEIK
UNITS_TEXT: %
REPORTED_RESULT: 62.6

BINDER: C-24 (antibody, V domains shown, human IgG1) VH: QVQLVQSGAEVKKPGASVKVSCKASGYTFTSYYMHWVRQAPGQGLEWMGVINPSGGSTSYAQKFQGRVTMTRDTSTSTVYMELSSLRSEDTAVYYCARESQYYDVHGMDVWGQGTTVTVSS VL: DIQMTQSPSSLSASVGDRVTITCRASQSISSYLNWYQQKPGKAPKLLIYAASSLQSGVPSRFSGSGSGTDFTLTISSLQPEDFATYYCQQSVTPPLTFGGGTKVEIK
UNITS_TEXT: %
REPORTED_RESULT: 42.7

BINDER: C-33 (antibody, V domains shown, human IgG1) VH: EVQLVESGGGLVQPGGSLRLSCAASGFTFSSYWMSWVRQAPGKGLEWVANIKSDGSEKYYVDSVKGRFTISRDNAKNSLYLQMNSLRAEDTAVYYCAREGRPRLGYAAFDIWGQGTMVTVSS VL: DIQMTQSPSSLSASVGDRVTITCRASQSISSYLNWYQQKPGKAPKLLIYAASSLQSGVPSRFSGSGSGTDFTLTISSLQPEDFATYYCQQQYDLPITFGGGTKVEIK
UNITS_TEXT: %
REPORTED_RESULT: 43.1

BINDER: C-36 (antibody, V domains shown, human IgG1) VH: EVQLVESGGGLVQPGGSLRLSCAASGFTFSSYWMSWVRQAPGKGLEWVANIKQDGSEKYYVDSVKGRFTISRDNAKNSLYLQMNSLRAEDTAVYYCARDGQYYPAYGMDVWGQGTTVTVSS VL: EIVMTQSPATLSVSPGERATLSCRASQSVSSNLAWYQQKPGQAPRLLIYGASTRATGIPARFSGSGSGTEFTLTISSLQSEDFAVYYCQQYFDLPTFGGGTKVEIK
UNITS_TEXT: %
REPORTED_RESULT: 36.3

BINDER: C-56 (antibody, V domains shown, human IgG1) VH: EVQLVESGGGLVQPGGSLRLSCAASGFTFSSYWMSWVRQAPGKGLEWVANIKQDGSEKYYVDSVKGRFTISRDNAKNSLYLQMNSLRAEDTAVYYCARDYGSVAGTPFDYWGQGTLVTVSS VL: DIQMTQSPSSLSASVGDRVTITCRASQSISSYLNWYQQKPGKAPKLLIYAASSLQSGVPSRFSGSGSGTDFTLTISSLQPEDFATYYCQQVLHTPLTFGGGTKVEIK
UNITS_TEXT: %
REPORTED_RESULT: 40

BINDER: C-72 (antibody, V domains shown, human IgG1) VH: QVQLVESGGGVVQPGRSLRLSCAASGFTFSSYGMHWVRQAPGKGLEWVAVIWYDGSNKYYADSVKGRFTISRDNSKNTLYLQMNSLRAEDTAVYYCAKEGGTYSDDFDLWGGGTLVTVSS VL: DIQMTQSPSSVSASVGDRVTITCRASQGISSWLAWYQQKPGKAPKLLIYAASSLQSGVPSRFSGSGSGTDFTLTISSLQPEDFATYYCQQASSFPLTFGGGTKVEIK
UNITS_TEXT: %
REPORTED_RESULT: 47.5

BINDER: C-27 (antibody, V domains shown, human IgG1) VH: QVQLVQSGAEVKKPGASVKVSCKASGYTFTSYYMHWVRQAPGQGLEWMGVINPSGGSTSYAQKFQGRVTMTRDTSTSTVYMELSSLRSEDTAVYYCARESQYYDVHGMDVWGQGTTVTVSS VL: DIQMTQSPSSLSASVGDRVTITCRASQSISSYLNWYQQKPGKAPKLLIYAASSLQSGVPSRFSGSGSGTDFTLTISSLQPEDFATYYCQQHYDIPLTFGGGTKVEIK
UNITS_TEXT: %
REPORTED_RESULT: 46.3

BINDER: C-44 (antibody, V domains shown, human IgG1) VH: QLQLQESGPGLVKPSETLSLTCTVSGGSISSSSYAWGWIRQPPGKGLEWIGSIYYSGSTYYNPSLKSRVTISVDTSKNQFSLKLSSVTAADTAVYYCAREGYVAAYGMDVWGQGTTVTVSS VL: DIQMTQSPSSLSASVGDRVTITCRASQSISSYLNWYQQKPGKAPKLLIYAASSLQSGVPSRFSGSGSGTDFTLTISSLQPEDFATYYCQQAYYPPWTFGGGTKVEIK
UNITS_TEXT: %
REPORTED_RESULT: 57.3

BINDER: C-42 (antibody, V domains shown, human IgG1) VH: QLQLQESGPGLVKPSETLSLTCTVSGGSISSSSYYWGWIRQPPGKGLEWIGSIYYSGSTYYNPSLKSRVTISVDTSKNQFSLKLSSVTAADTAVYYCAREPIYRRGMDVWGQGTTVTVSS VL: EIVLTQSPATLSLSPGERATLSCRASQSVSSYLAWYQQKPGQAPRLLIYDASNRATGIPARFSGSGSGTDFTLTISSLEPEDFAVYYCQQFSNYPTFGGGTKVEIK
UNITS_TEXT: %
REPORTED_RESULT: 52.2

BINDER: C-25 (antibody, V domains shown, human IgG1) VH: EVQLVESGGGLVQPGGSLRLSCAASGFTFSSYWMSWVRQAPGKGLEWVANIKSDGSEKYYVDSVKGRFTISRDNAKNSLYLQMNSLRAEDTAVYYCAREGFRDGINWFDPWGQGTLVTVSS VL: DIQMTQSPSSLSASVGDRVTITCRASQSISRYLNWYQQKPGKAPKLLIYAASSLQSGVPSRFSGSGSGTDFTLTISSLQPEDFATYYCQQQFLTPITFGGGTKVEIK
UNITS_TEXT: %
REPORTED_RESULT: 41.9
